Data provenance: patent US20250263502A1

Hi there, I'd appreciate the recorded Binding [relative units] (relative units) for every entry that follows.
Biological target: ectodomain of murine CD98hc (mouse) (UniProt P10852)
Sequence (P10852 100-526): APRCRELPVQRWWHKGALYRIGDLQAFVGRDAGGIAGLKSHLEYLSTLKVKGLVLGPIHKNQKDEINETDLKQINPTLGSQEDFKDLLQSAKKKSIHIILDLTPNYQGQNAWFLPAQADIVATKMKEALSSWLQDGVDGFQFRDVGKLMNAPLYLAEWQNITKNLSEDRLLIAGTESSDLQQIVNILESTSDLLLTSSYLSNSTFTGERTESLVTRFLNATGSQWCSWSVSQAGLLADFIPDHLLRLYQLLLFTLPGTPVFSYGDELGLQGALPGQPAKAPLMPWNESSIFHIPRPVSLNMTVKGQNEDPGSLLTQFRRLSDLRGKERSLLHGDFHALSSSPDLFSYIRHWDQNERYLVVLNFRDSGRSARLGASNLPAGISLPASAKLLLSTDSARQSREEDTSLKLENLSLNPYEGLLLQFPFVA
Assay: ELISA, expression medium of VNAR-hFc on coated protein
Numbers only.

>  <binder>
VNAR clone F12 fused N-terminally to human IgG1 Fc (VNAR-hFc) (Fc fusion, not shown: a dimerising Fc or GST) ARVDQTPQTITKEEGESLTINCVLRVHGRALASTSWYRKKSGSTREETISKGGRYVETVNSGSKSFSLRINDLTVEDSGTYRCNVYGLSFGDIEGVKKIDVYGDGTAVTVNA

>  <recorded_number>
0.563

$$$$

Proceed to the following item.
Hello, please tell me recorded Binding [relative units] (relative units) for this one: VNAR clone H12 fused N-terminally to human IgG1 Fc (VNAR-hFc) (Fc fusion, not shown: a dimerising Fc or GST) ARVDQTPQTITKEEGESLTINCVLRVHGCALASTSWYRKKSGSTREETISKGGRYVETVNSGSKSFSLRINDLTVEDSGTYRCNVYGLSFVDIEGVKKIDVYGDGTAVTVNA
0.045
